Sequence of the target: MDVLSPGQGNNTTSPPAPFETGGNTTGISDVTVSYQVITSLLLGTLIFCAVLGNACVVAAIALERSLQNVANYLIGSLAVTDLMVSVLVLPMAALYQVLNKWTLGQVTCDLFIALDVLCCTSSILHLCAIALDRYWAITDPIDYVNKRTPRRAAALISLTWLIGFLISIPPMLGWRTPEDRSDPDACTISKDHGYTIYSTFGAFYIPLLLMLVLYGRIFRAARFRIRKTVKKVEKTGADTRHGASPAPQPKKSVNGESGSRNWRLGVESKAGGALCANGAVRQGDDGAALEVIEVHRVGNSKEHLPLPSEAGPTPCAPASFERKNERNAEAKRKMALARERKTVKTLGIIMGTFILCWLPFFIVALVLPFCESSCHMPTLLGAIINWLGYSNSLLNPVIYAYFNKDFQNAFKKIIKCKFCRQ
pKi: −log10 of the molar value.
Record form. Attribute: pKi. Fill in for each entry.

Example molecules with recorded pKi:
O=C1Cc2cc(CCN3CCN(c4nsc5ccccc45)CC3)c(Cl)cc2N1 [Ziprasidone]
8.00 to 9.00
CN1CC2c3ccccc3Oc3ccc(Cl)cc3C2C1 (stereo not shown) [ORG5222]
8.00 to 9.00
Fc1cccc2c1O[C@H]1CNC[C@@H]1O2 [Fluparoxan]
6.00 to 7.00
CCNC(=O)N1CCN(CCCC(c2ccc(F)cc2)c2ccc(F)cc2)CC1 [Amperozide]
< 6.00

Batch request: pKi per item, same order as input.
1. CCN1CCC[C@H]1CNC(=O)c1c(O)c(Cl)cc(Cl)c1OC [Raciopride]
2. NC(=O)C1(N2CCCCC2)CCN(CCCC(=O)c2ccc(F)cc2)CC1 [Pipamperone]
3. Cc1nc2c(C)cccn2c(=O)c1CCN1CCC(c2noc3cc(F)ccc23)CC1 [Ocaperidone]

Result:
1. < 6.00
2. < 6.00
3. 7.00 to 8.00
